# System Name: RNA-dependent DNA polymerase activity of HIV reverse transcriptase (Human immunodeficiency virus type 1 group M subtype B, UniProt P04585)
# Construct: made in house
# Test Description: RNA-dependent DNA polymerase activity assay of HIV reverse transcriptase
# Assay type: biochemical, HIV-1
# Cond: 10 μM inhibitor concentration; activity with analog / without analog x 100
For each entry below, report its Residual activity (%) Polymerase value.
Give bare numbers, in %.

Worked examples follow.
Molecule	Residual activity (%) Polymerase
Cc1c(C(=O)CCC2CCCCC2)cc2n(c1=O)Cc1c-2nc2ccccc2c1[Si](C)(C)C [5Aδκ]	90
CCC(=O)c1cc2n(c(=O)c1C)Cc1c-2nc2ccc(C)cc2c1[Si](C)(C)C(C)(C)C [4Cακ]	52
Cc1c(C(O)CCC2CCCCC2)cc2n(c1=O)Cc1c-2nc2ccc(F)cc2c1[Si](C)(C)C (racemic) [5Bδ]	78
Cc1c(C(=O)C(C)(C)C)cc2n(c1=O)Cc1c-2nc2ccc(F)cc2c1-c1ccccc1 [3Bβκ]	61
Cc1c(C(=O)CCC2CCCCC2)cc2n(c1=O)Cc1c-2nc2ccccc2c1[Si](C)(C)C(C)(C)C [4Aδκ]	39
COc1ccc2nc3c(c(-c4ccccc4)c2c1)Cn1c-3cc(C(O)CCC2CCCCC2)c(C)c1=O (racemic) [3Dδ]	60
Cc1c(C(=O)C(C)(C)C)cc2n(c1=O)Cc1c-2nc2ccc(F)cc2c1[Si](C)(C)C(C)(C)C [4Bβκ]	82

Proceed to the following item.
For COc1ccc2nc3c(c([Si](C)(C)C)c2c1)Cn1c-3cc(C(=O)C(C)(C)C)c(C)c1=O [5Dβκ] , what is its reported Residual activity (%) Polymerase?
64
